Tested on: UO-31 renal
Assay: NCI-60 one-dose screen, 48 h (100 = growth as untreated, 0 = no growth, -100 = all killed)
Conditions: 10 µM unless noted
The panel holds about 83,000 compounds, 20% with a hit somewhere; the sample as a whole holds those more often.
Please use True for growth under 70% and False for everything else, ties included.

Example entries begin here.
{"columns": ["compound", "classLabel"],
 "data": [
  ["CCCCCCCCCCOc1ccc(C(=O)Oc2ccc(CSP3(=O)OCC4OC(n5ccc(=O)[nH]c5=O)C(F)C4OP(=O)(O)OCC4OC(n5cnc6c(N)ncnc65)C(F)C4O3)cc2)cc1 (stereo unspecified)", "False"],
  ["O=c1cc[nH]c(=O)o1", "False"],
  ["O=CN1N=C(c2ccc3c(c2)OCO3)CC1c1sc(N(CCCl)CCCl)nc1Cl (stereo unspecified)", "False"],
  ["CC(/C=N/N=C(N)N)=N\\N=C(N)N", "True"],
  ["O=C(O)C1[O][Sb][O]C1C(=O)O (stereo unspecified)", "False"],
  ["COc1cc(NCCCCCN=C(N)N)c2ncccc2c1", "False"],
  ["COc1ccc(C2SCC(=O)Nc3c2c(C)nn3-c2nc3ccc(C)cc3s2)cc1O (stereo unspecified)", "True"],
  ["CCN(CC)CCOc1c(C(C)C)cccc1C(C)C", "False"]
]}

Please let me know if "Oc1ccc(Br)cc1CN1CCN(Cc2ccc(Cl)cc2)CC1" shows growth below 70%.
True

Please let me know if "c1ccc2nc(OCCN3CC3)ccc2c1" shows growth below 70%.
True

Source: PubChem BioAssay (NCI)
